Entry source: patent US20240207421A1

Experimental System: Laminin 421/521
Assay Protocol: phage display, NGS count
Where Count equals or exceeds 30, the correct label is yes; where it does not, the label is no.

Recorded results for 10 binders are shown here.
Binder: LPMLRHS
Group: yes

Binder: VPVFLDQARVMK
Group: yes

Binder: ALGGEPRKAYQR
Group: yes

Binder: AKTQAPSNWSGV
Group: yes

Binder: AQGVWWSEWFAP
Group: yes

Binder: CTSSSHQTC
Group: no

Binder: CNHLTQKLC
Group: yes

Binder: CVLKCEDQKYRG
Group: no

Binder: QTFHEYLNPARG
Group: yes

Binder: RALDRYLPWSPH
Group: no

Consider the additional binder presented here.
# check: Count of `TILKPAAQGFAD` is greater than or equal to 30
no
